- Test system: HCT-116 colon
- protocol_details: NCI tumour cell line growth inhibition, 48 h; in the data active = GI50 below about 0.43 µM; inactive = the rest
Possible outcomes: active, inactive

{"columns": ["compound", "discrete_label"],
 "data": [
  ["Cc1c(Cl)cccc1NC1=C(Cl)C(=O)N(Cc2ccccc2)C1=O", "inactive"],
  ["O=C(N/N=C/c1cc([N+](=O)[O-])ccc1O)c1cccc2ccccc12", "inactive"],
  ["Cc1ccc2c(c1)C(=O)c1c-2n(CCCBr)c(=O)c2cc([N+](=O)[O-])ccc12", "inactive"],
  ["COc1cc(C2C3=C(COC3=O)Nc3cc4c(cc32)CCC4)cc2c1OCO2 (stereo not drawn)", "active"],
  ["CC(C)C[C@H](NC(=O)[C@@H](O)[C@H](N)Cc1ccc([N+](=O)[O-])cc1)C(=O)O", "inactive"],
  ["Nc1ccc(-c2ccc(N)cc2I)c(I)c1", "inactive"],
  ["CCCCN(CCCC)c1ccc(C(=NC(C)CCCN(CC)CC)c2ccc(N(C)C)cc2)cc1 (stereo not drawn)", "inactive"],
  ["N.N.NCCCCCCN.O=C([O-])CC(=O)[O-].O=C([O-])CC(=O)[O-].[Pt+4].[Pt+4]", "inactive"],
  ["O=C(c1cccnc1)c1cc(-c2ccccn2)c(=O)n2ccccc12", "inactive"],
  ["CCCOc1nc(SCCC)nc2c1cnn2-c1ccccc1", "inactive"],
  ["O=C(COc1cccc(/C=C2\\COc3ccc(Cl)cc3C2=O)c1)c1ccc(Cl)cc1", "inactive"],
  ["Cc1[nH]c2ccccc2c1CCNCc1ccc(/C=C/C(=O)NO)cc1", "active"],
  ["COc1ccc2c(c1)C(C)Cc1c(Cl)nc(C)nc1N2C (stereo not drawn)", "inactive"]
]}
